measurement.notes: PAMPA (parallel artificial membrane permeability assay)
Assay type: in vitro ADME
study.conditions: PAMPA; membrane permeation rate (Pe); 50 mM MOPSO buffer pH 6.5 with 5.0% glycocholic acid, 37° C., 18 hours; read-out: iPAMPA Pe
Starred links: 1 amine or outer side, 2 acyl side, 3 side chain; linkers in the order of their positions; H or OH if unused. Positions of bridges follow the written chain, without caps; N, C: chain ends. Non-standard residues stand in square brackets, D forms with d. Residues, ends and D or L forms follow the SMILES beside them. *: point of attachment. Ala(1H-tetrazol-5-yl) = N[C@@H](Cc1nnn[nH]1)C(=O)O; NMePhe(3-Cl) = CN[C@@H](Cc1cccc(Cl)c1)C(=O)O; NMeF = CN[C@@H](Cc1ccccc1)C(=O)O; NMeβAla = CN(CCC(=O)[*:2])[*:1]; NMeL = CN[C@@H](CC(C)C)C(=O)O; NMeV = CN[C@H](C(=O)O)C(C)C; NMeA = CN[C@@H](C)C(=O)O; Piperidide = C1CCN(*)CC1; dNMeA = CN[C@H](C)C(=O)O; Sar = CNCC(=O)O
Below is a list of entries, each paired with its recorded Papp at 18 hours, 50 µM value.

- molecule: "CC(C)C[C@H]1C(=O)N(C)[C@@H](C)C(=O)N(C)[C@@H](CC(C)C)C(=O)N[C@H](C(=O)N2CCCCC2)CC(=O)N(C)[C@H](C)C(=O)N(C)[C@@H](Cc2ccccc2)C(=O)N[C@@H]([C@@H](C)O)C(=O)N(C)[C@@H](C)C(=O)N(C)[C@@H](CC(C)C)C(=O)NCC(=O)N1C [DP-435] ([dNMeA][NMeF]T[NMeA][NMeL]G[NMeL][NMeA][NMeL]D-Piperidide; lactam N-10)"
  Papp at 18 hours, 50 µM [×10⁻⁶ cm/s]: 16
- molecule: "CC(C)C[C@H]1C(=O)N[C@@H]([C@@H](C)O)C(=O)N(C)[C@@H](C)C(=O)N[C@H](C(=O)N(C)[C@@H](Cc2ccccc2)C(=O)N[C@@H](C)C(=O)N2CCCCC2)CC(=O)N(C)CCC(=O)N(C)[C@@H](C(C)C)C(=O)N(C)[C@@H](Cc2ccccc2)C(=O)N(C)[C@@H](Cc2ccccc2)C(=O)N[C@@H](C)C(=O)N(C)[C@@H](C)C(=O)N1C [DP-370] ([NMeβAla][NMeV][NMeF][NMeF]A[NMeA][NMeL]T[NMeA]D[NMeF]A-Piperidide; lactam N-10)"
  Papp at 18 hours, 50 µM [×10⁻⁶ cm/s]: 25
- molecule: "CC[C@H](C)[C@H](NC(=O)CN(C)C(=O)[C@H](Cc1ccccc1)N(C)C(=O)[C@H](CC(C)C)N(C)C(=O)[C@@H](NC(=O)[C@@H]1CC(=O)N(C)[C@@H](C)C(=O)N[C@@H](CC(C)C)C(=O)N(C)[C@@H](CC(C)C)C(=O)N(C)[C@@H](C)C(=O)N(C)[C@@H](Cc2cccc(Cl)c2)C(=O)N[C@@H]([C@@H](C)O)C(=O)N1)C(C)C)C(=O)N1CCCCC1 [DP-912] ([NMeA]L[NMeL][NMeA][NMePhe(3-Cl)]TDV[NMeL][NMeF][Sar]I-Piperidide; lactam N-7)"
  Papp at 18 hours, 50 µM [×10⁻⁶ cm/s]: 1.3
- molecule: "CC(C)C[C@@H]1NC(=O)[C@H](Cc2ccccc2)N(C)C(=O)[C@H](Cc2ccccc2)N(C)C(=O)[C@H](C(C)C)NC(=O)[C@H](CC(C)C)N(C)C(=O)[C@H](Cc2nn[nH]n2)NC(=O)[C@H](CC(C)C)N(C)C(=O)C[C@@H](C(=O)N2CCCCC2)NC(=O)[C@H](CC(C)C)N(C)C1=O [DP-907] ([NMeL][Ala(1H-tetrazol-5-yl)][NMeL]V[NMeF][NMeF]L[NMeL]D-Piperidide; lactam N-9)"
  Papp at 18 hours, 50 µM [×10⁻⁶ cm/s]: 21

Ref: patent US9409952B2
